Test target: T1, Human N-terminally SNAP-tagged GIPR (human, UniProt P48546 22-466, SNAP tag labeled with Tag-Lite SNAP-Lumi4-Tb)
T1 sequence (looked up): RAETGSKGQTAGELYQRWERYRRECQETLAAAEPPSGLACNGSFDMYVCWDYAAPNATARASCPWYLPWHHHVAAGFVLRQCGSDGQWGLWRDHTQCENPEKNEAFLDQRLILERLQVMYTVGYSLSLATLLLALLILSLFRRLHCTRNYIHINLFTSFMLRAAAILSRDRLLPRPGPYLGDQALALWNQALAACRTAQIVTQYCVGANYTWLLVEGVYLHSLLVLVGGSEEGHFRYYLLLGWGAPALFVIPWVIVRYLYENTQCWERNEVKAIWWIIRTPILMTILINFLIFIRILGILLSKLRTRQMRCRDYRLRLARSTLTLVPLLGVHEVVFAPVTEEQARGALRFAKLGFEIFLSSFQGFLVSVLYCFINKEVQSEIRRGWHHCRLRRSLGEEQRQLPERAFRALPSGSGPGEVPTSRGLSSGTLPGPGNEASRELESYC
Test name: cell-based or functional assay
*1 amine or outer side, *2 acyl side, *3 side chain or, on linkers, in order; H or OH if unused. Where no end group is shown, it is not given here. Side-chain parts run from the residue outwards. [ ]: non-standard residue; d: D form. The star is where a group is joined. C18 diacid = O=C(O)CCCCCCCCCCCCCCCCC(=O)*; γGlu = O=C(O)[C@H](CCC(=O)[*:2])N[*:1]; AEEA = NCCOCCOCC(=O)O; Aib = CC(C)(N)C(=O)O
Reported property: Relative hGIPR internalization (%)
Write the number in % without appending the unit.

Previously resolved entries follow.
{"Binder": "H[Aib]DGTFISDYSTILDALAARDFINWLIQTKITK([AEEA-AEEA-γGlu-C18 diacid])-OH [Compound 28]", "Measured result": 59}
{"Binder": "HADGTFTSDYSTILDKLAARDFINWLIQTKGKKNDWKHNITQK([AEEA-AEEA-γGlu-C18 diacid])-OH [Compound 26]", "Measured result": 44}
{"Binder": "HADGTFTSDYST[Aib]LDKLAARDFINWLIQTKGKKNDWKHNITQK([AEEA-AEEA-γGlu-C18 diacid])-OH [Compound 27]", "Measured result": 24}

Lab note: measured Relative hGIPR internalization (%) of HADGTFTSDYSTILDK([AEEA-AEEA-γGlu-C18 diacid])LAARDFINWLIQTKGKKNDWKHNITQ-OH [Compound 21] was 28

Lab note: measured Relative hGIPR internalization (%) of HADGTFTSDYSTILDKK([AEEA-AEEA-γGlu-C18 diacid])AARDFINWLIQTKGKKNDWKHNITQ-OH [Compound 23] was 3
